FYI, the data here is from patent US10934309B2.

- Test system: HT-29 cells
- Test Name: Proliferation inhibition assay of cancer cells (Test Example 1), HT-29
- Assay type: cell-based, human
- Measurement Context: Homo sapiens, HT-29, 96 h, HT-29 cells, cultured for 4 days, Cell Titer-Glo; read-out: IC50 (μM) HT; concentration for 50% inhibition of cell proliferation (Bulk IC50 value)
Endpoint Label: IC50 (µM)

{"Compound": "CC(c1cc2c(s1)C(=O)c1ccncc1C2=O)N1CCOCC1 (centres unmarked)", "IC50 (µM)": 0.58}

I: CC(O)c1cc2c(s1)C(=O)c1cccnc1C2=O (centres unmarked)
II: CC(=O)c1oc2c(c1C(=O)N1CCOCC1)C(=O)c1cnccc1C2=O
III: CC(=O)c1cc2c(s1)C(=O)c1cnccc1C2=O
IV: CC(C)(O)c1cc2c(o1)C(=O)c1sccc1C2=O
V: CCN(Cc1cc2c(o1)C(=O)c1cccnc1C2=O)S(=O)(=O)CC(C)C
Exam item: list the entries in increasing order of IC50. I'd appreciate it if you listed the labels in the requested order. III, II, I, IV, V

a: O=C1c2cc(CN3CCOCC3)sc2C(=O)c2nccnc21
b: CC(O)c1cc2c(s1)C(=O)c1ccncc1C2=O (centres unmarked)
Which gives the smaller IC50 number: a or b ? Field: selected label. Fill in the label of the entry you choose. b

I: CCOC(c1cc2c(s1)C(=O)c1ccncc1C2=O)C1CC1 (centres unmarked)
II: CN(C)C(=O)c1cc2c(s1)C(=O)c1cccnc1C2=O
Which gives the smaller IC50 number: I or II ? Field: selected label. Fill in the label of the entry you choose. II
(II: 0.56 µM, I: 0.87 µM)

1: COC(C)c1cc2c(s1)C(=O)c1ncccc1C2=O (centres unmarked)
2: CCN(Cc1cc2c(s1)C(=O)c1ccncc1C2=O)C1CCCCC1
3: CC(O)c1cc2c(o1)C(=O)c1cnccc1C2=O (centres unmarked)
4: CC(=O)N1CCN(Cc2cc3c(s2)C(=O)c2ccncc2C3=O)CC1
5: CC(O)c1cc2c(o1)C(=O)c1cccnc1C2=O (centres unmarked)
Exam item: list the entries in increasing order of IC50. I'd appreciate it if you listed the labels in the requested order. 3, 4, 1, 2, 5

I: O=C1c2cnccc2C(=O)c2oc(C(F)F)cc21
II: CC(O)c1cc2c(o1)C(=O)c1ncccc1C2=O (centres unmarked)
Of the two listed items, which has the higher IC50? First: I Second: II Field: selected label. Fill in the label of the entry you choose. II

a: CC(O)c1cc2c(o1)C(=O)c1sccc1C2=O (centres unmarked)
b: O=C(NCC(F)F)c1cc2c(o1)C(=O)c1ccncc1C2=O
c: CCc1noc(-c2cc3c(s2)C(=O)c2ccncc2C3=O)n1
d: O=C1c2cnccc2C(=O)c2sc(CNCC(F)F)cc21
Order the items by recorded IC50; the first position goes to the largest value. I'd appreciate it if you listed the labels in the requested order. a, d, c, b

A: O=C1c2cnccc2C(=O)c2sc(CO)cc21
B: CC(=O)c1cc2c(s1)C(=O)c1ncccc1C2=O [Example 36, 2-acetylthieno[3,2-g]quinoline-4,9-dione]
Of the two listed items, which has the higher IC50? First: A Second: B Field: selected label. Fill in the label of the entry you choose. B

I: O=C1c2cc(C(=O)N3CCOCC3)oc2C(=O)c2sccc21
II: CCN(CCOC)Cc1cc2c(s1)C(=O)c1cccnc1C2=O
Of the two listed items, which has the higher IC50? First: I Second: II Field: selected label. Fill in the label of the entry you choose. II
(II: 0.93 µM, I: 0.58 µM)
